# Tested on: giant foxtail (Setaria faberii)
# assay-procedure: Test A postemergence
# Format: in vivo
# assay-context: Setaria faberi, post-emergence, 240 h, 500 g ai/ha, postemergence; 0 to 100 scale, 0 is no effect, 100 is complete control; read-out: Foxtail, Giant plant response rating
Provide the recorded pest or weed control at 500 g/ha for the entries that follow.
Please format your answer as a value with the unit trailing.

Assign pest or weed control at 500 g/ha to the following record: CN1CC(c2cccc(Br)c2)C(C(=O)Nc2ccccc2F)C1=O (stereo not shown)
90%

Assign pest or weed control at 500 g/ha to the following record: Cc1ccc([C@H]2CN(C)C(=O)[C@]2(O)C(=O)Nc2cccc(F)c2F)cc1 (racemic)
40%

Assign pest or weed control at 500 g/ha to the following record: CN1C[C@H](c2cc(F)cc(F)c2)[C@@H](C(=O)Nc2cnccc2Cl)C1=O
0%

Assign pest or weed control at 500 g/ha to the following record: Cc1cc([C@H]2CN(C)C(=O)[C@@H]2C(=O)Nc2ccc(F)c(F)c2F)ccc1Br
80%

Assign pest or weed control at 500 g/ha to the following record: N#Cc1ccc([C@H]2CNC(=O)[C@@H]2C(=O)Nc2cccc(F)c2F)cc1
80%

Assign pest or weed control at 500 g/ha to the following record: O=C1NC[C@H](c2ccc(F)c(OC(F)(F)C(F)F)c2)[C@H]1C(=O)Nc1cccc(F)c1F
90%

Assign pest or weed control at 500 g/ha to the following record: Cc1cc([C@H]2CN(C)C(=O)[C@@H]2C(=O)Nc2ccc(F)cc2F)ccc1Br
70%

* * *

# Test system: ryegrass, Italian (Italian ryegrass, Lolium multiflorum)
# assay-procedure: Test A preemergence
# Format: in vivo
# assay-context: Lolium multiflorum, pre-emergence, 240 h, 500 g ai/ha, preemergence; 0 to 100 scale, 0 = no effect, 100 = complete control; read-out: Plant response rating, Ryegrass, Italian
Provide the recorded pest or weed control at 500 g/ha for the entries that follow.
The reply should contain only the number, in %.

Assign pest or weed control at 500 g/ha to the following record: O=C1NC[C@H](c2ccc(C(F)(F)F)cc2)[C@H]1C(=O)Nc1ccccc1C1CC1 [Compound 746]
40

Assign pest or weed control at 500 g/ha to the following record: O=C1NC[C@H](c2cc(F)c(F)c(F)c2)[C@H]1C(=O)Nc1ccc(F)c(F)c1F [Compound 756]
70

Assign pest or weed control at 500 g/ha to the following record: O=C1NC[C@H](c2cccc(C(F)(F)F)c2)[C@H]1C(=O)Nc1ccccc1C1CC1 [Compound 748]
0

Assign pest or weed control at 500 g/ha to the following record: CCc1cc(CC)cc([C@H]2CN(C)C(=O)[C@@H]2C(=O)Nc2ccccc2C(F)(F)F)c1 [Compound 737]
70

* * *

# Test system: barnyardgrass (Echinochloa crus-galli)
# assay-procedure: Test G Pre-Emergence Protocol
# Assay type: in vivo
# assay-context: Echinochloa crus-galli, pre-emergence, 312 h, 15.625 g ai/ha, evaluated after 13 days, read-out: Barnyardgrass damage rating (100=total damage to plant; 0=no damage to plant)
readout-name: pest or weed control at 15.625 g/ha (%)
The reply should contain only the number, in %.

Output reported pest or weed control at 15.625 g/ha of the compound CCCOc1cc(C2CN(C)C(=O)C2C(=O)Nc2cccc(F)c2F)cc(C(F)(F)F)c1 (stereo not shown) on barnyardgrass (Echinochloa crus-galli).
20

Output reported pest or weed control at 15.625 g/ha of the compound CN1C[C@@H](c2cc(Br)cc(Oc3ccccc3)c2)[C@H](C(=O)Nc2cccc(F)c2F)C1=O (racemic) on barnyardgrass (Echinochloa crus-galli).
0

Output reported pest or weed control at 15.625 g/ha of the compound COc1cc(F)cc(C2CN(C)C(=O)C2C(=O)Nc2cccc(F)c2F)c1 (stereo not shown) on barnyardgrass (Echinochloa crus-galli).
60

Output reported pest or weed control at 15.625 g/ha of the compound C=C(C)c1cccc([C@@H]2CN(C)C(=O)[C@H]2C(=O)Nc2cccc(F)c2C)c1 (racemic) on barnyardgrass (Echinochloa crus-galli).
70
